system: U2OS; test: Multiplex assay against U2OS; assay type: toxicity, cell-based; details: human, 24 h, 10 µM, compound concentration 10 uM, replicate 2
Can you tell me Population Healthy Nuclei (%) for the items I'm about to list?
Write the numeric value and append its unit.

Reported Population Healthy Nuclei (%) ( CC(C)[C@H](CO)Nc1nc(Nc2cccc(Cl)c2)c2ncn(C(C)C)c2n1 ) = 65%

The measured Population Healthy Nuclei (%) associated with NC(=O)c1ccc2nc(-c3ccc(C4(N)CCC4)cc3)c(-c3ccccc3)n2n1 reads 87%

Looking up CN(c1cc(C(F)(F)F)nc(OCCC(=O)O)n1)c1cccc2c1CCC2 , I found its Population Healthy Nuclei (%) recorded as 81%

Documented Population Healthy Nuclei (%) of N#CCNC(=O)c1ccc(-c2ccnc(Nc3ccc(N4CCOCC4)cc3)n2)cc1 : 52%

The compound identified as Cc1ccc(NC(=O)Nc2cc(C(F)(F)F)ccc2F)cc1Nc1ccc2c(c1)NC(=O)/C2=C\c1ccc[nH]1 registered its Population Healthy Nuclei (%) at 87%

Population Healthy Nuclei (%) for Oc1cccc(-c2nc(N3CCOCC3)c3oc4ncccc4c3n2)c1 is 24%

So for CC(C)C[C@H](NC(=O)[C@H](Cc1ccccc1)NC(=O)CNC(=O)CNC(=O)[C@@H](N)Cc1ccc(O)cc1)C(=O)O , the logged Population Healthy Nuclei (%) turned out to be 86%

Consider CC(Cc1ccc(O)c(O)c1)C(C)Cc1ccc(O)c(O)c1 (stereo not drawn) [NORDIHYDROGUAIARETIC ACID] . Its measured Population Healthy Nuclei (%) is 90%

Data point: Cl.Cn1c2c(c3ccc(Cl)c(Cl)c31)C(C#N)C1(CCNCC1)NC2=O (stereo not drawn) ; Population Healthy Nuclei (%) = 17%

The reported Population Healthy Nuclei (%) of the compound N#Cc1cccc(C(=O)Nc2cc(-c3ccccc3)nn2-c2ccccc2)c1 was 67%

Per the record, Cc1ccc(S(=O)(=O)NC2c3ccccc3Oc3ccccc32)cc1 has Population Healthy Nuclei (%) of 68%

For reference, reported Population Healthy Nuclei (%) for CCOC(=O)CCNc1cc(N2CCc3ccccc3CC2)nc(-c2ccccn2)n1 stands at 88%

The value of Population Healthy Nuclei (%) measured for the compound CC[C@@H]1C(=O)N(C)c2cnc(Nc3ccc(C(=O)NC4CCN(C)CC4)cc3OC)nc2N1C1CCCC1 turned out to be 70%

The measured Population Healthy Nuclei (%) associated with CC(/C=C1\SC(=S)N(CCCC(=O)Nc2ccc(C(=O)O)c(O)c2)C1=O)=C\c1ccccc1 reads 83%

Measured Population Healthy Nuclei (%) of CCCCCNC(=N)N/N=C/c1c[nH]c2ccc(OC)cc12.O=C(O)/C=C\C(=O)O [TEGASEROD MALEATE] : 26%

Recorded Population Healthy Nuclei (%) (compound CC[C@@]1(O)C(=O)OCc2c1cc1n(c2=O)Cc2cc3ccccc3nc2-1 ): 64%

Memo: CC[C@H](Nc1ncnc2[nH]cnc12)c1nc2cccc(F)c2c(=O)n1-c1ccccc1 , reported Population Healthy Nuclei (%): 82%

Lookup result for CCOc1ccn(-c2ccc(F)cc2)c(=O)c1C(=O)Nc1ccc(Oc2ccnc(N)c2Cl)c(F)c1 ; measured Population Healthy Nuclei (%): 90%
